meta.source: patent US5350757A

Catalogue of IC50 readings, one per entry.
- target_system: angiotensin type 2 (AT2) (Oryctolagus cuniculus, UniProt G1T351)
- Sequence (G1T351 1-363): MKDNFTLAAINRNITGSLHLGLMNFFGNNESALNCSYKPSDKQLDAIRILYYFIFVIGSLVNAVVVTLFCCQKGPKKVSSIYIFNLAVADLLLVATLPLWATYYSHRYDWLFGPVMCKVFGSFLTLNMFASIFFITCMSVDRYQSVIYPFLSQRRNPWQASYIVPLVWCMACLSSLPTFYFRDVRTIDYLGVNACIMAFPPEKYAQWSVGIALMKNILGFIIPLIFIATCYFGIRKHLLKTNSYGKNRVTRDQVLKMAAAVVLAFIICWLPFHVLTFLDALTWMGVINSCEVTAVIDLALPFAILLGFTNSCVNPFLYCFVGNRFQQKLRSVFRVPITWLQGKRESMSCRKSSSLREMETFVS
// return numeric value only (unit: nM, not printed)

# example entries with known answers
- compound: "CCOC(=O)C1Cc2c(ccc(OC)c2OCc2ccccc2)CN1C(=O)C(c1ccccc1)c1ccccc1 (racemic) [Example 30]"
  IC50 [nM]: 151
- compound: "COc1ccc2c(c1OCc1ccccc1)CC(C(=O)O)N(C(=O)Cc1c(Cl)cccc1Cl)C2 (racemic) [Example 25]"
  IC50 [nM]: 117

IN: Bench note: what IC50 did COc1ccc(COc2c(OC)ccc3c2CC(C(=O)O)N(C(=O)C(c2ccccc2)c2ccccc2)C3)cc1C (racemic) [Example 35] show?
OUT: 1.9

IN: Entry to check: COc1cc2c(cc1OCc1ccccc1)CC(C(=O)O)N(C(=O)C(c1ccccc1)c1ccccc1)C2 (racemic) [Example 21]
OUT: 58.5

IN: Queued: COc1ccc2c(c1OCc1ccccc1)CC(C(=O)O)N(C(=O)N(C)c1ccccc1)C2 (racemic) [Example 26]
OUT: 8.4
